Recorded values, source patent US20250019450A1.

- testedSystem: T1, cyno IL-12RB1 overexpressed on 293T cells (Example 2) (cyno, UniProt A0A2K5VWV1 24-662)
- T1 construct: whole, on cells
- measurementProtocol: FACS, hybridoma supernatant, 293T
resultType: Fold over parental 293T (fold)
Field: numeric (fold). Do not append units.

Example entries and their recorded answers appear below.
85801_06L19 (antibody, V domains shown, also called 85801_06L19A) VH: QVQLVQSGAEVKKPGASVKVSCKASGYTFTDYYIHWVRQAPGQGLEWMGWINPDSGGTHYAQKFQGRVTMTRDTSISTVYMDLSRLRSDDTAVYYCAREGEGLASFDSWGQGTLVTVSS VL: DIQMTQSPSSLSASVGNRVTITCRASQGINNYLAWFQQKPGKAPKSLIYAASSLQSGVPSKFSGSGSGTDFTLTISSLQPEDFATYYCQQYNNYPFTFGPGTKVDIK    25
85801_01M07 (antibody, V domains shown, also called 85801_01M07A) VH: QVQLVQSGAEVKKPGASVKVSCKASEYTFTDDYMHWVRQAPGQGLVWMGWINPNSGGTNYAQKFQGRVTMTRDTSISTAYMELSRLRSDDTAVYYCARGGLNWGWDWFDPWGQGTLVTVSS VL: EIVLTQSPGTLSLSPGERATLSCRASQNINNNYLAWYQRKPGQAPRLLIYGASSRATGIPDRFSGSGSGTDFTLTISRLEPEDFAMYYCQQYGSSLTFGGGTKVEIK    28

Input line: Query (binder): 85801_01002 (antibody, V domains shown, also called 85801_01O02A) VH: QVQLVQSGAEVRKPGASVKVSCKASGYTFTDYYMHWVRQAPGQGLEWMGWINPDNGGANYAQRFLGRVTMTRDTSISTAYMELSRLRSDDTAVYYCAREGSGSPYAFDLWGLGTVVTVSS VL: DIQLTQSPSFLSASVGDRVTITCRASQGISSYLAWYQQKPGKAPKLLIYAASTLQSGVPSRFSGSGSGTEFTLTISSLQPEDFATYCCQQLNRYPFTFGQGTKLEIK ; field requested: Fold over parental 293T
Output line: 13
